# Test system: Mycolicibacterium smegmatis
# METHOD DESCRIPTION: In vitro antimicrobial activity against Mycobacterium smegmatis ATCC 607,tested at 100-0.1 ug/mL
# Type: functional
Criterion: MIC strictly less than 3 µg/mL. Met: Fulfilled. Not met: Not fulfilled.

# SMILES, CATEGORY
measured = [
    ("Cc1cc2c(cc1O)CCc1ccccc1-2", "Not fulfilled"),
    ("COc1cc2c(cc1C[N+](C)(C)CSc1ccccc1)-c1ccc(OC)c(C)c1CC2.[Br-]", "Fulfilled"),
    ("COc1ccccc1C[N+](C)(C)CSc1ccccc1.[Br-]", "Not fulfilled"),
    ("COc1cc2c(cc1C[N+](C)(C)CSc1ccccc1)-c1ccccc1CC2.[Br-]", "Fulfilled"),
    ("COc1cc2c(cc1C)-c1ccccc1CC2", "Not fulfilled"),
    ("Cc1cc2c(cc1O)CCc1c-2ccc(O)c1C", "Not fulfilled"),
]

====

# System: Candida albicans
# METHOD DESCRIPTION: In vitro antimicrobial activity against Candida albicans ATCC 10231, tested at 100-0.1 ug/mL
# Format: functional
PROPERTY LABEL: MIC (mg/L)

# SMILES, MEASUREMENT TARGET, PROPERTY LABEL, MEASURED NUMBER
data = [
    ("COc1cc2c(cc1C)-c1ccccc1CC2", "Candida albicans", "MIC", 100),
    ("COc1ccccc1C[N+](C)(C)CSc1ccccc1.[Br-]", "Candida albicans", "MIC", 100),
    ("COc1cc2c(cc1C[N+](C)(C)CSc1ccccc1)-c1ccccc1CC2.[Br-]", "Candida albicans", "MIC", 12.5),
    ("Cc1cc2c(cc1O)CCc1c-2ccc(O)c1C", "Candida albicans", "MIC", 50),
    ("Cc1cc2c(cc1O)CCc1ccccc1-2", "Candida albicans", "MIC", 6.25),
    ("COc1cc2c(cc1C[N+](C)(C)CSc1ccccc1)-c1ccc(OC)c(C)c1CC2.[Br-]", "Candida albicans", "MIC", 3.12),
]
